Tested on: primary mouse cortical neurons
Construct: primary cortical neurons, DIV 10
assay-overview: cells
Design: Protection from NMDA-induced (30 uM, 10 min) neuronal death; Hoechst nuclear morphology by automated microscopy
conditions-used: Cortical neurone, 20 h, read-out: % inhibition, inhibition of NMDA-induced cell death (protection score), 30 min pre-treatment
Counter-ions that a name gives are not always drawn.
Kindly state inhibition at 10 µM for each of the entries shown.
State just the number; it will be interpreted in %.

Give the measured inhibition at 10 µM for COc1ccccc1OCC(O)COC(N)=O (centres unmarked) [Methocarbamol (Robaxin)] -0.235

Please report the measured inhibition at 10 µM for CC(C)(C#N)c1cc(Cn2cncn2)cc(C(C)(C)C#N)c1 [Anastrozole] 3.89

Return value of inhibition at 10 µM for input CCOC(=O)C(C)(C)Oc1ccc(Cl)cc1 [Clofibrate (Atromid-S)] , no commentary. -1.89

Complete the entry with inhibition at 10 µM for CC(C)NCC(O)COc1ccc(COCCOC(C)C)cc1 (centres unmarked) [Bisoprolol] 10

Return inhibition at 10 µM for the following molecule: CC(=O)[C@H]1CC[C@H]2[C@@H]3CCC4=CC(=O)CC[C@]4(C)[C@H]3CC[C@]12C [Progesterone (Prometrium)] 7.11

Give me measured inhibition at 10 µM, please, for this molecule: CNS(=O)(=O)Cc1ccc2[nH]cc(CCN(C)C)c2c1 [Sumatriptan succinate] 8.05

Using the record for COc1c(N2C[C@@H]3CCCN[C@@H]3C2)c(F)cc2c(=O)c(C(=O)O)cn(C3CC3)c12 [Moxifloxacin hydrochloride] , state its measured inhibition at 10 µM. 0.0291

// Input: CNCCC[C@]12CC[C@H](c3ccccc31)c1ccccc12 [Maprotiline hydrochloride] . Output its inhibition at 10 µM only. 0.000867

These measurements were taken from paper PMC7489219.
